target: human angiotensin-converting enzyme 2, extracellular catalytic domain, produced in mammalian cells … (human, UniProt Q9BYF1 19-615); assay: FACS
Sequence (Q9BYF1 19-615): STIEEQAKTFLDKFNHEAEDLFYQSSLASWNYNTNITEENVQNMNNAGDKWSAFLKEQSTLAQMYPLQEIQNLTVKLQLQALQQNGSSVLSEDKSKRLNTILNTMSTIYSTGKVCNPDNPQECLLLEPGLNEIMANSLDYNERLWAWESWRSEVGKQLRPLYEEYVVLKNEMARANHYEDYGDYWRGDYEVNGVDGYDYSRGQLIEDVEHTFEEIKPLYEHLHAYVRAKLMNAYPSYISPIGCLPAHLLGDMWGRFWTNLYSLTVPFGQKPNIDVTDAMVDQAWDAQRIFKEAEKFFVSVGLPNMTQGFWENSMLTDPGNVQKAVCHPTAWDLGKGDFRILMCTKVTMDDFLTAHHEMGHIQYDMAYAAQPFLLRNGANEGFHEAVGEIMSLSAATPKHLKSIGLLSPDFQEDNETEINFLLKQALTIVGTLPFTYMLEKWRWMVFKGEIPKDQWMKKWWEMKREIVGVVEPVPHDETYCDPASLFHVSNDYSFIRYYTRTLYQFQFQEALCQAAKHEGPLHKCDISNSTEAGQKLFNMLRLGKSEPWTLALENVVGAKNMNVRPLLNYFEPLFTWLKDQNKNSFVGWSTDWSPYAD
pKd: −log10 of the molar value.
property: pKd

* ACEPLGYALFLCSG [GR1.9 (N8A), yeast-displayed alanine mutant of GR1.4] | < 6.00
